- System: PfIESI-1 RRM domain (Plasmodium falciparum ortholog aa 875-1232, GST fusion)
- Assay Text: RBNS R-value (6-mer enrichment in protein-bound RNA vs input library) (ratio); higher = stronger binding preference; the methods of the paper give 50 / 100 / 500 nM protein instead
- Measurement Conditions: protein concentration: 500 nM
Whole data set: some 4,100 sequences, median “RBNS R-value (6-mer enrichment in protein-bound RNA vs input library)” near 0.99, cut for the highest 2% near 1.4. The entries come from a sample that favours the highest values as a whole.
Parameter Measured: RBNS R-value
Lab note: write the figure by itself, no unit.

Consider the reported RBNS R-value for these sequences:
{"Macromolecule Sequence": "UUUUGC", "Value Reported": 1.04}
{"Macromolecule Sequence": "AAUUAA", "Value Reported": 0.862}
{"Macromolecule Sequence": "CGGGGA", "Value Reported": 1.1}
{"Macromolecule Sequence": "CAUGAG", "Value Reported": 1.07}
{"Macromolecule Sequence": "UGUCAG", "Value Reported": 0.924}

Consider the record given below.
Recall the recorded RBNS R-value for CAUGAA with PfIESI-1 RRM domain (Plasmodium falciparum ortholog aa 875-1232, GST fusion) and state it.
1.05
